For each record, write down the corresponding viability.
test: growth suppression of beta-catenin knockout HCT116, pilot screen, human colon tumor cells (AID 823);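 further: 0% = wells killed by 20 µM Hyamine and 100% = untreated DMSO cell wells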
measurement_setup: CellTiter-Glo, 60 h, at 10 µM, active compounds read low
Inconclusive results are not listed.
Give bare numbers, in %.

For orientation, consider the following solved cases.
| compound | unit_descriptor | viability |
| --- | --- | --- |
| CCCC(=O)NCCCc1nc2ccccc2[nH]1 | % | 108 |
| N#CC1=C2SCN(c3ccccc3)CN2C(=O)CC1c1c(Cl)cccc1Cl (stereo not drawn) | % | 84.3 |

Would you be so kind as to report viability for each listed record?
1. O=C(c1nnc(Cc2ccc(Cl)cc2)o1)N1CCOCC1
2. O=C(NO)c1ccc(C(=O)N(C2CCCCC2)C2CCCCC2)cc1
3. O=C1c2ccccc2C(Nc2ccc3c(c2)OCCO3)N1c1ccc(Cl)cn1 (stereo not drawn)
4. COc1ccc(CCNS(=O)(=O)c2ccc3c(c2)oc(=O)n3C)cc1OC
5. O=C1CCC(=O)N1CNc1cccnc1
6. CCOC(=O)N1CCN(C(=O)CSc2nc3c(cnn3-c3ccc(C)cc3)c(=O)[nH]2)CC1
7. Cc1ccc(-c2nn3c(C)nnc3s2)cc1NC(=O)C(C)C

1: 105; 2: 17.2; 3: 81.7; 4: 105; 5: 95.3; 6: 95.7; 7: 110
